The origin of these recorded values is patent US20130287781A1.

biological target: T1, GST-human NOGO-A56 (human); experiment: SPR (Biacore), GST-human NOGO-A56 amine-coupled to CM5, antibody flowed over, 37 C
T1 construct: Expressed in E. coli BL21 from pGEX-6P1 and purified on glutathione-sepharose; the GST tag is part of the protein in the assays; also called GST-Nogo-A 5+6; GST Nogo-A 5 + 6
T1 sequence (chain, as listed by the source limits assumed): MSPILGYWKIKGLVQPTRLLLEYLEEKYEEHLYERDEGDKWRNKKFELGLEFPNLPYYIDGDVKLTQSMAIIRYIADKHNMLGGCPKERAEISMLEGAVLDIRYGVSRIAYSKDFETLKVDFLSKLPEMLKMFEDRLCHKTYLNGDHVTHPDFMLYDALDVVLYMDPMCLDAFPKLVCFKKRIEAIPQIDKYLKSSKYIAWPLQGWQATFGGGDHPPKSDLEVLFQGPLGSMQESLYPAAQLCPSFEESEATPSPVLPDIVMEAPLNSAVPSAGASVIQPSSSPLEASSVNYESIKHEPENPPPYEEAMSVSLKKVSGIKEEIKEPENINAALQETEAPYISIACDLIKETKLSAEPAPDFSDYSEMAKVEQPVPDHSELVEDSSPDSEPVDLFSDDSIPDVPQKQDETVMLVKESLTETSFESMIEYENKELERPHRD
Provide the reported koff of each item.
Numbers only, in s⁻¹.

Respectfully, I request koff for each entry included below.
1. HcLc (chimera of 2A10: murine 2A10 VH and VL with human IgG constant regions) (antibody, V domains shown, also called chimeric antibody; chimeric form of the parental antibody) VH: QVQLQQPGTELVKPGASVKLSCKASGYTFTSYWMHWVKQRPGQGLEWIGNINPSNGGTNYNEKFKSKATLTVDKSSSTAYMQLSSLTSEDSAVYYCELGQGYWGQGTLVTVSS VL: DIVITQDELSNPVTSGESVSISCRSSKSLLYKDGKTYLNWFLQRPGQSPQLLIYLMSTRASGVSDRFSGSGSGTDFTLEISRVKAEDVGVYYCQQLVEYPLTFGAGTKLELKR
2. H27L16 (antibody, human IgG1, kappa, V domains shown, IgG1 (L235A, G237A) / kappa; CAMPATH-1H signal (1-19) left out; also called H27FL L16FL) VH: QVQLVQSGAEVKKPGASVKVSCKASGYTFTSYWMHWVKQRPGQGLEWIGNINPSNGGTNYNEKFKSKATLTVDKSTSTAYMELSSLRSEDTAVYYCELMQGYWGQGTLVTVSS VL: DIVMTQSPLSNPVTLGQPVSISCRSSKSLLYKDGKTYLNWFLQRPGQSPQLLIYLMSTRASGVPDRFSGGGSGTDFTLKISRVEAEDVGVYYCQQLVEYPLTFGQGTKLEIKR
3. H27L13 (antibody, human IgG1, kappa, V domains shown, IgG1 (L235A, G237A) / kappa; CAMPATH-1H signal (1-19) left out) VH: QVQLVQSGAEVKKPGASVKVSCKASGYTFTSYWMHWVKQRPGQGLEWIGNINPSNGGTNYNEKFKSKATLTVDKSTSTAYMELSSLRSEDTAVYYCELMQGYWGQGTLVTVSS VL: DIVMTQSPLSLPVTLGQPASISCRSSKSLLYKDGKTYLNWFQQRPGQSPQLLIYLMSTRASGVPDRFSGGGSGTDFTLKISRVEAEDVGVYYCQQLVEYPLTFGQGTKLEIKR

OUT:
0.00774
0.00306
0.00422

Respectfully, I request koff for each entry included below.
1. H28L13 (antibody, human IgG1, kappa, V domains shown, IgG1 (L235A, G237A) / kappa; CAMPATH-1H signal (1-19) left out; also called H28FL L13FL) VH: QVQLVQSGAEVKKPGASVKVSCKASGYTFTSYWMHWVRQAPGQGLEWIGNINPSNGGTNYNEKFKSKATMTRDTSTSTAYMELSSLRSEDTAVYYCELMQGYWGQGTLVTVSS VL: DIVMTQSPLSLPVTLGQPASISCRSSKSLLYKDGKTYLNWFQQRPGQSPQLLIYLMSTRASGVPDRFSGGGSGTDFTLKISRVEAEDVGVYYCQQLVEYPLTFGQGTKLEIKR
2. H20L16 (antibody, human IgG1, kappa, V domains shown, IgG1 (L235A, G237A) / kappa; CAMPATH-1H signal (1-19) left out) VH: QVQLVQSGAEVKKPGASVKVSCKASGYTFTSYWMHWVRQAPGQGLEWIGNINPSNGGTNYNEKFKSKATMTRDTSTSTAYMELSSLRSEDTAVYYCELGQGYWGQGTLVTVSS VL: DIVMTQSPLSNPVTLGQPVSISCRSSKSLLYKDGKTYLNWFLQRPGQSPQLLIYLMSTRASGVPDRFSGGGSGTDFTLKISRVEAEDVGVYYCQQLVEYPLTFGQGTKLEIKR
3. H16L16 (antibody, human IgG1, kappa, V domains shown, IgG1 (L235A, G237A) / kappa; CAMPATH-1H signal (1-19) left out) VH: QVQLVQSGAEVKKPGASVKVSCKASGYTFTSYWMHWVKQRPGQGLEWIGNINPSNGGTNYNEKFKSKATLTVDKSTSTAYMELSSLRSEDTAVYYCELGQGYWGQGTLVTVSS VL: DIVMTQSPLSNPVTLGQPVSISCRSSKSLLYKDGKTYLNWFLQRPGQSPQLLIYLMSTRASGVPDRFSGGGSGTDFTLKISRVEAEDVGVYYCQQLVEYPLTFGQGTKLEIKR

OUT:
[0.00759, 0.0108, 0.00616]
